Data provenance is PubChem BioAssay (NCATS).

target: 3',5'-cyclic-AMP phosphodiesterase 4B (Homo sapiens) (UniProt Q07343); assay: qHTS Assay for Inhibitors of PDE-IV (AID 607); details: HEK293 ACTOne CNG channel cells, membrane potential fluorescence; series mostly up to 22.9 µM
Sequence (Q07343 whole entry, looked up): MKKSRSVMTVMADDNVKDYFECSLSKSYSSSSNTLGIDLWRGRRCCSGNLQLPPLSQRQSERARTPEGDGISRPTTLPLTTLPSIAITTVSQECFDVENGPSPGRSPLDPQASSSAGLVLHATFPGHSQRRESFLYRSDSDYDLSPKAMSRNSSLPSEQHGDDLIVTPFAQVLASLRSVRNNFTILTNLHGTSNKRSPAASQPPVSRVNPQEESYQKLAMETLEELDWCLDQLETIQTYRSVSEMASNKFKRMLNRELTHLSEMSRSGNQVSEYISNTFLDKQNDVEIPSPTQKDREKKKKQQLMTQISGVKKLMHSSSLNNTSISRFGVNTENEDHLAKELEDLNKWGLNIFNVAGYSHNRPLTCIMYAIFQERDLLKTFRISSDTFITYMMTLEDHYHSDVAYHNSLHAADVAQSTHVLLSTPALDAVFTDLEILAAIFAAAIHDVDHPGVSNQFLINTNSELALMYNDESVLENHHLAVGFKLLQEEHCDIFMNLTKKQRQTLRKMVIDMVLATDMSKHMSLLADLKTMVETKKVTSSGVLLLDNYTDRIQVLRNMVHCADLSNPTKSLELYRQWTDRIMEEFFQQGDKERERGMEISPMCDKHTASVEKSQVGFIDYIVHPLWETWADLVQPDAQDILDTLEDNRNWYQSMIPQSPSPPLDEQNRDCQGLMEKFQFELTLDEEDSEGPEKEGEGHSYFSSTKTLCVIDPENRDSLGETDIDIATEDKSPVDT
Records with an inconclusive call do not appear. Calls of active or inactive are those of the source. The call rests on the fitted dose curve; in most records, active means well fitted activation curve with a large enough effect in the main read-out, with a control signal flat (not every such curve was filed as active); inconclusive means small, poorly fitted or top-dose-only effect, or effect the other way, or a change in a side signal; inactive means flat fitted curve, though single readings scatter.
Labels: YES (active), NO (inactive)

chemical_string=O=C(c1cccc(F)c1)N1CCC2(CC1)CCN(c1ccccc1)CC2 class_name=NO
chemical_string=Cc1cnc(CNc2ncncc2-c2c(C)noc2C)cn1 class_name=NO
chemical_string=COCCn1c(=O)c(C)nc2cnc(N(C)C)nc21 class_name=NO
chemical_string=Cn1cc(-c2nc3cnc(N4CCOCC4)nc3n(C3CC3)c2=O)c2ccccc21 class_name=NO
chemical_string=O=S(=O)(c1ccccc1)N1CCC[C@@]2(CCN(c3ccncc3)C2)C1 class_name=NO
chemical_string=O=C(Nc1cccc(F)c1)N1CC[C@@]2(CCCN(C(=O)c3cccc(F)c3)C2)C1 class_name=NO
chemical_string=CC(C)NC(=O)N1CCC2(CC1)CCN(S(C)(=O)=O)CC2 class_name=NO
chemical_string=CC(=O)NCCNc1nc(-c2cccnc2)nc2ccccc12 class_name=NO
chemical_string=O=C(c1cccc(F)c1)N1CCC2(CCN(Cc3cc(C(F)(F)F)cc(C(F)(F)F)c3)CC2)CC1 class_name=NO
chemical_string=FC(F)(F)c1cc(CN2CC3(CCNCC3)C2)cc(C(F)(F)F)c1 class_name=NO
chemical_string=COCC(=O)N1CCC2(CC1)CCN(c1ccccn1)CC2 class_name=NO
chemical_string=COc1ccc(-n2c(=O)cnc3cnc(OC)nc32)cc1 class_name=NO
chemical_string=COc1ccc(C(=O)N2CCC[C@@]3(CCN(C(=O)Nc4ccccc4)C3)C2)cc1 class_name=NO
chemical_string=COCC(=O)N1CCC[C@@]2(CCN(c3ncccn3)C2)C1 class_name=NO
chemical_string=COc1cccc(-c2ccc3ncnc(N4CCN(C)CC4)c3c2)c1 class_name=NO
chemical_string=FC(F)(F)c1ccccc1-c1cc(NCCN2CCOCC2)ncn1 class_name=NO
chemical_string=CC(=O)N1CCC2(CCN(Cc3ccncc3)CC2)CC1 class_name=NO
chemical_string=COc1ccc(CNc2cc(-c3ccoc3)ncn2)c(OC)c1 class_name=NO
chemical_string=CCn1c(=O)c2[nH]c(-c3ccccc3)nc2n(CC)c1=O class_name=YES
chemical_string=Cc1cnc(CNc2ccnc(-c3ccccc3CN(C)C)n2)cn1 class_name=NO
chemical_string=COCCn1c(=O)c(-c2ccc(F)cc2)nc2cnc(OC)nc21 class_name=NO
chemical_string=COCCn1c(=O)c(-c2cn(C)c3ccccc23)nc2cnc(N3CCOCC3)nc21 class_name=NO
chemical_string=CC(C)NC(=O)N1CCC2(CC1)CCN(C(=O)c1csnn1)CC2 class_name=NO

---

assay: U-118MG Cancer Cell Toxicity qHTS against the NCATS CANVASS Library (AID 1347351); settings: U-118MG viability, CellTiter-Glo luminescence, 72 h; series mostly up to 38.3 µM
Results filed as inconclusive are left out. The source made the active and inactive calls. Calls come from the whole dose curve; as a rule, active = well fitted cell-killing curve with a large enough effect; inconclusive = small, poorly fitted or top-dose-only effect; inactive = flat fitted curve, though single readings scatter.
Labels: active, inactive

compound=CC[C@@H]1C[C@@]2(CC)OC(=O)[C@@]3(CC)[C@H](CC)[C@@H]1[C@@H]23 class_name=inactive
compound=COC(=O)C1=C[C@]23C[C@@H](C)CC[C@@H]2[C@@]2(C)CC[C@@H](C(C)C)[C@@](O)(O3)[C@@H]12 class_name=inactive
compound="C=C1CCC2C(C)(C(=O)O)CCC(CC/C(C)=C/C(=O)NC(CCC(N)=O)C(=O)O)[C@@]2(C)C1 (stereo partly drawn)" class_name=inactive
compound=CC(C)=CCC[C@]1(C)[C@H]2CC(=O)[C@@]3(CO3)[C@@H]1C2 class_name=inactive
compound="C/C=C1/CN2C3CC1C1C=CC(=O)N4c5ccccc5[C@@]3(C[C@@H]2C2=C[C@H]3C5CC6N(CC[C@@]67c6ccccc6N(C2=O)[C@@H]37)C/C5=C/C)[C@H]14 (stereo partly drawn)" class_name=active
compound=C=C1CC[C@@H](Br)C(C)(C)[C@]12CC=C(C)C(=O)C2 class_name=inactive
compound=COC(=O)[C@@]12Oc3cccc(O)c3C(O)=C1C(=O)C[C@H](C)[C@H]2O class_name=inactive
compound=C/C=C(/C)c1c(Cl)c(O)c(C)c2c1Oc1c(Cl)c(O)c(Cl)c(C)c1C(=O)O2 class_name=inactive

---

molecular target: Glucocorticoid receptor (Homo sapiens); assay: GR-GFP Redistribution (AID 450); conditions: U2OS GR-GFP nuclear translocation, laser cytometry, 2 h; further: potency means the concentration at half of the fitted maximal effect
Activity calls are given as the source filed them.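 The calls were made as follows: active = compounds whose dose series gives a full or clear partial fitted curve of increased nuclear translocation; inconclusive = weak partial curve or effect only at the top dose; inactive = no dose-dependent translocation response.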
Catalogue of Potency values
value-kind: Potency

chemical_string=Cn1cc(-c2nc3cncnc3n(-c3ccccc3)c2=O)c2ccccc21 result_value="> 9.22 µM (inactive)"
chemical_string=O=c1c(-c2cc(F)cc(F)c2)nc2cnc(N3CCOCC3)nc2n1C[C@H]1CCCO1 result_value="> 9.22 µM (inactive)"
chemical_string=CN1CCN(c2ncc3ncc(=O)n(C[C@H]4CCCO4)c3n2)CC1 result_value="> 9.22 µM (inactive)"
chemical_string=Cc1cnc(CNc2ccnc(-c3ccccc3C(F)(F)F)n2)cn1 result_value="> 46 µM (inactive)"
chemical_string=CCNc1ncc2nc(-c3ccccc3)c(=O)n(C[C@H]3CCCO3)c2n1 result_value="> 9.22 µM (inactive)"
chemical_string=COc1ccccc1-c1cc(NCc2cccc(C)c2)ncn1 result_value="> 46 µM (inactive)"
chemical_string=CC(=O)NCCNc1nc(-c2cccnc2)nc2ccccc12 result_value="> 46 µM (inactive)"
chemical_string=COCCn1c(=O)c(-c2ccc(Cl)cc2)nc2cnc(OC)nc21 result_value="> 9.22 µM (inactive)"
chemical_string=COCCNc1ncncc1-c1ccccc1OC result_value="> 46 µM (inactive)"
chemical_string=COc1ccccc1CCn1c(=O)c(-c2cc(F)cc(F)c2)nc2cncnc21 result_value="> 9.22 µM (inactive)"
chemical_string=CCNc1ncc2nc(-c3cn(C)c4ccccc34)c(=O)n(C)c2n1 result_value="> 9.22 µM (inactive)"

---

target: Calcium and integrin-binding protein 1 (Homo sapiens) (UniProt Q99828); experiment: Primary qHTS for Identification of Calcium Integrin Binding Protein 1 (CIB1) Competitor (AID 1508620); conditions: CIB1-GST / FITC-alphaIIb peptide fluorescence polarization; series mostly up to 114 µM;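 further: GST tagged CIB1 binding a fluorescein labelled alphaIIb integrin peptide tracer; top concentration of the series differs between compounds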
Sequence (Q99828 whole entry, looked up): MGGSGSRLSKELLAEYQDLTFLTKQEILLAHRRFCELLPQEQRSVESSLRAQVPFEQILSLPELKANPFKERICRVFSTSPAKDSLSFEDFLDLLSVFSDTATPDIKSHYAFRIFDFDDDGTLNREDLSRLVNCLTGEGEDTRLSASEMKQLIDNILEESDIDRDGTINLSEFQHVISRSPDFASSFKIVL
Results filed as inconclusive are left out. Activity calls are given as the source filed them. The call rests on the fitted dose curve; in most records, active means well fitted inhibition curve with a large enough effect; inconclusive means small, poorly fitted or top-dose-only effect; inactive means flat fitted curve, though single readings scatter.
value-kind: outcome

compound=O=C1Cc2cc(C(=O)c3ccco3)ccc2N1 result_value=inactive
compound=NC(=O)C1CCN(c2nc(-c3cccc(F)c3)cs2)CC1 result_value=inactive
compound=O=C(O)c1ccc(O)c2ncc(-c3ccc(C(=O)N4CCNCC4)cc3)cc12 result_value=inactive
compound=CC(=O)N1CCN(c2ccc(NS(=O)(=O)c3ccc4c(c3)CC(=O)N4)cc2)CC1 result_value=inactive
compound="O=C(CNC(=O)c1ccccc1)OC(Cc1ccccc1)C(=O)Nc1cc(C(F)(F)F)ccc1Cl (stereo not given)" result_value=inactive

---

experiment: qHTS drug screen for cell cycle checkpoint inhibitors in PARPi-resistant BRCA-mutant ovarian cancer cell lines. (AID 1963452); conditions: PEO1/OlaR viability, CellTiter-Glo luminescence, 96 h; measured here: PEO4 Z-AUC; stronger effect = lower value
// thresholds for Z-AUC classes: bottom: < -0.5; middle: ≥ -0.5 and < 0.5; top: ≥ 0.5

chemical_string=O=C(NCc1ccccc1)[C@H](Cc1ccccc1)NC(=O)[C@H]1O[C@@H]1C(=O)NCCc1ccc(O)cc1 class_name=middle
chemical_string=CN1C(=O)[C@@H](NC(=O)c2cc(Cc3ccccc3)on2)COc2ccccc21 class_name=top
chemical_string=O=C(O)c1ccc(O)c2ncccc12 class_name=top
chemical_string=COc1cc(-c2cn(C)c(=O)c3cnccc23)c(OC)cc1CN(C)C class_name=bottom
chemical_string=COc1cc2c3c(n(CCCn4ccnc4)c(=O)c2cc1OC)-c1cc2c(cc1C3=O)OCO2 class_name=bottom
chemical_string=O=C(O)CNC(=O)c1nc(Cl)c2ccccc2c1O class_name=middle
chemical_string=CS(=O)(=O)c1ccc([C@@H](CC2CCCC2)C(=O)Nc2nccs2)cc1 class_name=top
chemical_string=CCNCCS(=O)(=O)NC[C@@]1(c2ccccc2)SC(NC(=O)C(C)(C)C)=NN1C(=O)C(C)(C)C class_name=bottom

---

test: qHTS for Antimalaria activity screened against the NCATS CANVASS Library (AID 1347380); further: nearly all actives have a fitted effect of over 40% in size; conditions: P. falciparum Dd2 growth, SYBR Green fluorescence, 72 h; series mostly up to 28.7 µM
Inconclusive results are not listed. Active and inactive are the calls of the source. Calls follow the shape of the dose curve; as a rule, active = well fitted cell-killing curve with a large enough effect; inconclusive = small, poorly fitted or top-dose-only effect, or effect the other way; inactive = no such curve, though single readings can be large or run the other way.
Labels: active, inactive

molecule=COc1c(O)cc(O)c2c(=O)cc(-c3ccccc3)oc12 class_name=inactive
molecule=CC[C@@H]1[C@H](C)[C@H](c2cc(OC)c(OC)cc2OC)[C@@H](C)[C@H](c2cc(OC)c(OC)cc2OC)[C@]12C=C(OC)C(=O)C=C2OC class_name=active
molecule=CN1CC[C@@]2([C@@]34CCN(C)[C@@H]3Nc3ccccc34)c3ccccc3N[C@@H]12 class_name=active
molecule="C/C=C(/CO)C(=O)O[C@@H]1[C@H](O)[C@@H](C(=O)OC)O[C@@H]2C[C@H]3OC(n4cnc5c(N)ncnc54)[C@H](OC)[C@H]3O[C@@]12O (some centres undefined)" class_name=inactive
